// pIC50 lookup, one value per entry
Test system: H3K4me3 in MV4-11 cells
Test: MV4-11 H3K4me3 Cellular ELISA Assay
Assay type: cell-based
Details: Homo sapiens, MV4-11, 48 h
pIC50: −log10 of the molar value.

Some solved entries appear below for comparison.
Nc1ncnc2c1ncn2Cc1c(Br)cc(Cl)cc1N1CC[C@](N)(CO)C1 [Example 19]	> 5.72
Nc1ncnc2c1ncn2Cc1c(Br)cc(Cl)cc1N1CC[C@](N)(CCc2nn[nH]n2)C1 (single isomer, unassigned) [Example 39]	< 5.52
Nc1ncnc2c1ncn2Cc1c(N2CC[C@](N)(C(=O)NC3CC3)C2)ccc(Br)c1C(F)(F)F [Example 146]	> 5.72
CN(C)Cc1cc(Cl)c(Cl)c(N2CC[C@](N)(C(=O)NC3CC3)C2)c1Cn1cnc2c(N)ncnc21 [Example 89]	< 5.52
Nc1ncnc2c1ncn2Cc1c(N2CC[C@](N)(C(=O)NC3CC3)C2)ccc(F)c1C1CC1 [Example 8]	> 5.72
N#CCC1CCN(C(=O)[C@@]2(N)CCN(c3ccc(F)c(C(F)(F)F)c3Cn3cnc4c(N)ncnc43)C2)CC1 [Example 119]	> 5.72
Nc1ncnc2c1ncn2Cc1c(N2CC[C@](N)(C(=O)NC3CC3)C2)ccc(F)c1CN1CCOCC1 [Example 65]	> 5.72
Nc1ncnc2c1ncn2Cc1c(Br)cc2c(c1N1CCC(N)(C(=O)NC3CC3)C1)OCO2 (stereo not shown) [Example 31]	> 5.72
Nc1ncnc2c1ncn2Cc1c(N2CC[C@](N)(C(=O)N3CCc4nocc4C3)C2)ccc(F)c1C(F)(F)F [Example 134]	> 5.72
Nc1ncnc2c1ncn2Cc1c(Cl)c(Cl)cc(F)c1N1CCC(N)(C(=O)NC2CC2)C1 (stereo not shown) [Example 152]	> 5.72

Tell me measured pIC50 for CCOC(=O)CC[C@@]1(N)CCN(c2cc(Cl)cc(Br)c2Cn2cnc3c(N)ncnc32)C1 [Example 34] please. > 5.72

Name the recorded pIC50 of the compound listed here: CCc1c(Cl)cc(Cl)c(N2CC[C@](N)(C(=O)N3CCS(=O)(=O)CC3)C2)c1Cn1cnc2c(N)ncnc21 [Example 73] > 5.72

Tell us which pIC50 value is on record for Nc1ncnc2c1ncn2Cc1c(N2CC[C@](N)(C(=O)NC3CC3)C2)cc(Cl)c(F)c1CN1CCOCC1 [Example 102] > 5.72

Recall and state the measured pIC50 for Nc1ncnc2c1ncn2Cc1c(N2CC[C@](N)(c3nc[nH]n3)C2)ccc(Cl)c1Cl [Example 85] . > 5.72

Supply pIC50 value. Item: CS[C@H]1C[C@H](NC(=O)[C@@]2(N)CCN(c3ccc(F)c(C(F)(F)F)c3Cn3cnc4c(N)ncnc43)C2)C1 [Example 117] > 5.72

Tell me pIC50 reported for CCc1c(F)ccc(N2CC[C@](N)(C(=O)NC3CC3)C2)c1Cn1cnc2c(N)ncnc21 [Example 10] > 5.72

Hello, the source for this data is patent US20220380371A1, in case you need it.
